Molecular target: Solute carrier family 15 member 1 (Homo sapiens)
Sequence (P46059 whole entry): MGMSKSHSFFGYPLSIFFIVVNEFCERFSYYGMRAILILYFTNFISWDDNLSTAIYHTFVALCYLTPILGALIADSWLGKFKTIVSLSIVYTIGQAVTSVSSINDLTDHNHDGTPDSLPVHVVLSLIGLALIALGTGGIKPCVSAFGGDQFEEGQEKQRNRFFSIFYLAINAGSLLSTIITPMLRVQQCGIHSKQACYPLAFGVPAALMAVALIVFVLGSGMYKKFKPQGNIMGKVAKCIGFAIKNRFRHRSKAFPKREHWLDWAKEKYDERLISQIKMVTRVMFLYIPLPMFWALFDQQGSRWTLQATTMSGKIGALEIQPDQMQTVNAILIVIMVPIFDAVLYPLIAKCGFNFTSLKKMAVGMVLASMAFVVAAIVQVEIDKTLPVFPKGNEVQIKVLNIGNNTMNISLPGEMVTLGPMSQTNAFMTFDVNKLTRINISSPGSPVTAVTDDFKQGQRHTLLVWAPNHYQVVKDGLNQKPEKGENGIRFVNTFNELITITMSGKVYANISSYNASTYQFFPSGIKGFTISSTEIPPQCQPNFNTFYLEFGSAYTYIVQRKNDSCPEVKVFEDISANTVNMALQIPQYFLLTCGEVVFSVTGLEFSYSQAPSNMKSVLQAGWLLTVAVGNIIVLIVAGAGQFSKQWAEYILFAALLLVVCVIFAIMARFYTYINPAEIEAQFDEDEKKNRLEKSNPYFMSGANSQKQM
Test: TP_TRANSPORTER: inhibition of Gly-Sar uptake (pH6.0) in Caco-2 cells
pKi: −log10 of the molar value.
Think of 2 as a floor: if pKi stands on it or above, it is 1.0; beneath it, 0.0.

Consider the worked cases shown below.
[[record]]
compound = "CO[C@@]1(NC(=O)CSCC#N)C(=O)N2C(C(=O)O)=C(CSc3nnnn3C)CS[C@@H]21"
answer_label = 0.0

[[record]]
compound = "CO/N=C(\\C(=O)N[C@@H]1C(=O)N2C(C(=O)O)=C(COC(C)=O)CS[C@H]12)c1csc(N)n1"
answer_label = 0.0


Asked: Given NC(=O)c1cc[n+](CC2=C(C(=O)O)N3C(=O)[C@@H](NC(=O)[C@@H](c4ccccc4)S(=O)(=O)[O-])[C@H]3SC2)cc1 , state whether its pKi is at least 2.
Given back: 0.0

Asked: Confirm if pKi reported for the compound CC1(C)S[C@@H]2[C@H](NC(=O)C3(N)CCCCC3)C(=O)N2[C@H]1C(=O)O is 2 or above.
Given back: 1.0

Asked: Check the entry CC(=O)OCC1=C(C(=O)O)N2C(=O)[C@@H](NC(=O)CSc3ccncc3)[C@H]2SC1 : does pKi equal or exceed 2?
Given back: 0.0

Asked: Dear colleague, could you confirm whether CO/N=C(\C(=O)N[C@@H]1C(=O)N2C(C(=O)[O-])=C(C[N+]3(C)CCCC3)CS[C@H]12)c1csc(N)n1 has pKi at or above 2?
Given back: 0.0

Asked: Check the entry CO/N=C(\C(=O)N[C@@H]1C(=O)N2C(C(=O)O)=C(CSc3nc(=O)c(=O)[nH]n3C)CS[C@H]12)c1csc(N)n1 : does pKi equal or exceed 2?
Given back: 0.0

Asked: Quick check, pKi >= 2? CC1=C(C(=O)O)N2C(=O)[C@@H](NC(=O)[C@H](N)c3ccc(O)cc3)[C@H]2SC1
Given back: 1.0

Asked: Does the compound Cc1onc(-c2c(Cl)cccc2Cl)c1C(=O)N[C@@H]1C(=O)N2[C@@H]1SC(C)(C)[C@@H]2C(=O)O have recorded pKi that is 2 or more?
Given back: 1.0

Asked: Could you tell me if the measured pKi of N[C@@H](C(=O)N[C@@H]1C(=O)N2C(C(=O)O)=C(Cl)CS[C@H]12)c1ccccc1 [CEFACLOR ANHYDROUS] reaches 2 or more?
Given back: 0.0

---

Ki listing for selected compounds.
Molecular target: UniProt:P46059
Assay: TP_TRANSPORTER: inhibition of Gly-Sar uptake (pH6.0) in Caco-2 cells
Write the number in mM without appending the unit.

[[record]]
compound = "Cc1onc(-c2ccccc2Cl)c1C(=O)N[C@@H]1C(=O)N2[C@@H]1SC(C)(C)[C@@H]2C(=O)O [CLOXACILLIN]"
readout_name = "Ki"
result_value = 3

[[record]]
compound = "CC1=C(C(=O)O)N2C(=O)[C@@H](NC(=O)[C@H](N)C3=CCC=CC3)[C@H]2SC1 [CEPHRADINE]"
readout_name = "Ki"
result_value = 9.8


Let us move to another entry and its Ki.
Asked: Quick one: give measured Ki for CO/N=C(\C(=O)N[C@@H]1C(=O)N2C(C(=O)O)=C(CSc3nc(C)c(CC(=O)O)s3)CS[C@H]12)c1csc(N)n1 [CEFODIZIME]
Given back: 22
